# assayName: Quantum yield of solubilized protein (Cy5 reference)
# Assay type: physicochemical
# assayContext: excitation at 600 nm
testReadout: Quantum yield

**Q:** What measured Quantum yield goes with Arch D95H/D106H/F161V: Arch triple mutant D95H, D106H, F161V (protein) MDPIALQAGYDLLGDGRPETLWLGIGTLLMLIGTFYFLVRGWGVTDKDAREYYAVTILVPGIASAAYLSMFFGIGLTEVTVGGEMLDIYYARYAHWLFTTPLLLLHLALLAKVDRVTIGTLVGVDALMIVTGLIGALSHTAIARYSWWLFSTICMIVVLYVLATSLRSAAKERGPEVASTFNTLTALVLVLWTAYPILWIIGTEGAGVVGLGIETLLFMVLDVTAKVGFGFILLRSRAILGDTEAPEPSAGADVSAAD ?
**A:** 5 × 10^−3

**Q:** Would you kindly repeat that for Arch D95H/D106H/P60S: Arch triple mutant D95H, D106H, P60S (protein) MDPIALQAGYDLLGDGRPETLWLGIGTLLMLIGTFYFLVRGWGVTDKDAREYYAVTILVSGIASAAYLSMFFGIGLTEVTVGGEMLDIYYARYAHWLFTTPLLLLHLALLAKVDRVTIGTLVGVDALMIVTGLIGALSHTAIARYSWWLFSTICMIVVLYFLATSLRSAAKERGPEVASTFNTLTALVLVLWTAYPILWIIGTEGAGVVGLGIETLLFMVLDVTAKVGFGFILLRSRAILGDTEAPEPSAGADVSAAD ?
**A:** 5 × 10^−3

**Q:** Consider next the molecule Arch D95N: Archaerhodopsin 3 D95N mutant, non-pumping voltage indicator of US 2013/0224756 (protein) MDPIALQAGYDLLGDGRPETLWLGIGTLLMLIGTFYFLVRGWGVTDKDAREYYAVTILVPGIASAAYLSMFFGIGLTEVTVGGEMLDIYYARYANWLFTTPLLLLDLALLAKVDRVTIGTLVGVDALMIVTGLIGALSHTAIARYSWWLFSTICMIVVLYFLATSLRSAAKERGPEVASTFNTLTALVLVLWTAYPILWIIGTEGAGVVGLGIETLLFMVLDVTAKVGFGFILLRSRAILGDTEAPEPSAGADVSAAD in the same way.
**A:** 4 × 10^−4

**Q:** Record: QuasAr2: Archaerhodopsin 3 variant with mutations P60S, T80S, D95Q, D106H, F161V; genetically encoded voltage indicator (protein) MDPIALQAGYDLLGDGRPETLWLGIGTLLMLIGTFYFLVRGWGVTDKDAREYYAVTILVSGIASAAYLSMFFGIGLTEVSVGGEMLDIYYARYAQWLFTTPLLLLHLALLAKVDRVTIGTLVGVDALMIVTGLIGALSHTAIARYSWWLFSTICMIVVLYVLATSLRSAAKERGPEVASTFNTLTALVLVLWTAYPILWIIGTEGAGVVGLGIETLLFMVLDVTAKVGFGFILLRSRAILGDTEAPEPSAGADVSAAD
**A:** 4 × 10^−3

**Q:** Would you kindly repeat that for QuasAr1: Archaerhodopsin 3 variant with mutations P60S, T80S, D95H, D106H, F161V; genetically encoded voltage indicator (protein) MDPIALQAGYDLLGDGRPETLWLGIGTLLMLIGTFYFLVRGWGVTDKDAREYYAVTILVSGIASAAYLSMFFGIGLTEVSVGGEMLDIYYARYAHWLFTTPLLLLHLALLAKVDRVTIGTLVGVDALMIVTGLIGALSHTAIARYSWWLFSTICMIVVLYVLATSLRSAAKERGPEVASTFNTLTALVLVLWTAYPILWIIGTEGAGVVGLGIETLLFMVLDVTAKVGFGFILLRSRAILGDTEAPEPSAGADVSAAD ?
**A:** 8 × 10^−3

**Q:** Item: Arch D95H/D106H: Arch double mutant D95H, D106H (protein) MDPIALQAGYDLLGDGRPETLWLGIGTLLMLIGTFYFLVRGWGVTDKDAREYYAVTILVPGIASAAYLSMFFGIGLTEVTVGGEMLDIYYARYAHWLFTTPLLLLHLALLAKVDRVTIGTLVGVDALMIVTGLIGALSHTAIARYSWWLFSTICMIVVLYFLATSLRSAAKERGPEVASTFNTLTALVLVLWTAYPILWIIGTEGAGVVGLGIETLLFMVLDVTAKVGFGFILLRSRAILGDTEAPEPSAGADVSAAD
**A:** 2 × 10^−3
